tested on: MS2 coat protein; experiment: apparent KD of MS2 coat protein, switch ON state; designed switch direction (-1 OFF switch, 1 ON switch): -1; higher = weaker reporter binding; settings: FMN input: 0 or 200 uM; Eterna round: R93 (includes R88 designs)
Use 30 nM as the dividing line for apparent KD of MS2 coat protein, with the line itself on the Fulfilled side and lower values as Not fulfilled.

[
  {
    "query_sequence": "AAAAAGUGAGGAUAUACAUGAGGAUCACCCAUGUUAAAAAAAAAAAAAUAUAAAAAUAGUAGAAGGCACAAAAA [Default title]",
    "label": "Fulfilled"
  },
  {
    "query_sequence": "AGUGAGUGAGGAUAUCACUGAACAACAAAACAAAUAACGAGUGAGAAGGCACAUGAGGAUCACCCAUGUACACA [May 67]",
    "label": "Not fulfilled"
  },
  {
    "query_sequence": "AAGAAGACAGGAUAUACAUGAGGAUCACCCAUGUAAAAGAAAGAAAGGGAAAAGAAAAGUAGAAGGGUCAAGAA [Khepermaatre-setpenptah Ramesses X]",
    "label": "Fulfilled"
  },
  {
    "query_sequence": "AAGUUGGUAGGAUAUACGUGCAAUUGGUGUGUCCGGAAAAAACAUGAGGAUCACCCAUGUAGAAGGACCAAAAA [Quonmabi]",
    "label": "Fulfilled"
  },
  {
    "query_sequence": "AAAAAGCGAGGAUAUACAAAAGAGCGAAAGCUCAAAAGGAAACAUGAGGAUCACCCAUGUAGAAGGCGCAAGAA [John Whine]",
    "label": "Not fulfilled"
  },
  {
    "query_sequence": "AAAGUGCAAGGAUAUAUAUGAAAAGUUACGAAAGUAACAAAACAUGAGGAUCACCCAUGUAGAAGGUGCACAAA [Seclusion (MS2 riboswitches - Exlclusion 2)]",
    "label": "Not fulfilled"
  },
  {
    "query_sequence": "UGCCGUCUAGGAUAUACAUGAGGAUCACCCAUGUGACACACAUAUUUUACAAAACCAUGUAGAAGGAGACGGCA [E3-2.0]",
    "label": "Fulfilled"
  },
  {
    "query_sequence": "AAAGGACGAGGAUAUACAUGAGGAUCACCCAUGUAAAAAACAUAAGAAAAGAAGUUAUGUAGAAGGCGUCCAAA [69%, Moding Meechl, 13]",
    "label": "Not fulfilled"
  },
  {
    "query_sequence": "AAAUUGUCAGGAUAUCCAGCUAUACGAAAUAUAUAUACACGGGAGAAGGGACAUGAGGAUCACCCAUGUUUGAA [JR_Exc004_Sub702]",
    "label": "Fulfilled"
  },
  {
    "query_sequence": "AAAAGCUCAGGAUAUACGGUCUGUUGUUGAGAAAUAAAAAAACAUGAGGAUCACCCAUGUAGAAGGGAGCGAAA [Exclusion2-cac3]",
    "label": "Fulfilled"
  },
  {
    "query_sequence": "AACGUACAUGAGGAUCACCCAUGUUAGGAUAUGCCGGGUUAGAGCCAACUAAAAAACCGUAGAAGGGACGAAAA [Bilbo Confounded 11 - Jieux - Exclusion 1]",
    "label": "Not fulfilled"
  }
]

* * *

// reported apparent KD of MS2 coat protein for each item listed
test system: MS2 coat protein; experiment: apparent KD of MS2 coat protein; designed switch direction (-1 OFF switch, 1 ON switch): -1; higher = weaker reporter binding; conditions: Eterna round: R95; input ligand: FMN 200 uM
endpoint: apparent KD of MS2 coat protein (nM)

[
  {
    "query_sequence": "UCCCUGUCAGGAUAUACAUGAGGAUCACCCAUGUCUCUCCGACACGGGAAAAGGAACUGUAGAAGGGACAGGAU [Xezaeseris] (puzzle: Exclusion 3)",
    "endpoint": "apparent KD of MS2 coat protein",
    "unit_of_measurement": "nM",
    "recorded_value": 19.6
  },
  {
    "query_sequence": "GAGAAACAUGAGGAUCACCCAUGUGAGGAUAUGAAAAAGAAAAGAAAAGAAAGAAGAAUCAGAAGGCACAAAGC [salish99-ex1_r3_091] (puzzle: Exclusion 1)",
    "endpoint": "apparent KD of MS2 coat protein",
    "unit_of_measurement": "nM",
    "recorded_value": 23.1
  },
  {
    "query_sequence": "AGUAGGUCUACCUUGGUGGAUCUGCAUUUAGGCAGGUGUACAUGAGGAUCACCCAUGUCCUCAUUUGCUCGUCUUAU [JL turnoff v2 99.29] (puzzle: Sensor v3, turn-off variant 2)",
    "endpoint": "apparent KD of MS2 coat protein",
    "unit_of_measurement": "nM",
    "recorded_value": 807
  },
  {
    "query_sequence": "CUAGCUUCGGCUAGUACAAGCUUUUUGCUCGUCUUAUUAACAUGAGGAUCACCCAUGUUAAUGAGACCUCAUGUAUU [Sensor v3 - turn-off variant 2 - 9] (puzzle: Sensor v3, turn-off variant 2)",
    "endpoint": "apparent KD of MS2 coat protein",
    "unit_of_measurement": "nM",
    "recorded_value": 12.7
  },
  {
    "query_sequence": "ACCUCACAUGAGGAUCACCCAUGUCAGGAUAUGUACCCGAUCAAGUCAGAGAUCGGAAGCAGAAGGGACUGCGG [Bemabebe] (puzzle: Exclusion 1)",
    "endpoint": "apparent KD of MS2 coat protein",
    "unit_of_measurement": "nM",
    "recorded_value": 26.5
  }
]

* * *

test system: MS2 coat protein; assay: apparent KD of MS2 coat protein; higher = weaker reporter binding; conditions: Eterna round: R107; input ligand: none
endpoint: apparent KD of MS2 coat protein

[
  {
    "query_sequence": "UAUAUAGAAGGAUGUCAUAUAGAUGCAGAAGGAGCGUAGGAAACUACAGGUAGGUCGCUGAGGUACAUGAGGAUCACCCAUGUAG [SSArg A #17 Slice of Pi]",
    "recorded_value": "33.1 nM"
  },
  {
    "query_sequence": "GUCUCUGAGAGAAGGAGCGUGAAGACAUGAGGAUCACCCAUGUAGAGGCGCCGAAGGCGUUCGCAGGUAGGUCGCUCUCAGAGAC [#1 Same State - Arginine B Attempt #20 (HarryS)]",
    "recorded_value": "15.5 nM"
  },
  {
    "query_sequence": "GGCACCGGGCGAAGGAGCGUGAAGACAUGAGGAUCACCCAUGUAGAGGCCCGGACAGGGUUCGCAGGUAGGUCGCGCGCGGUGCC [#1 Same State - Arginine B Attempt #8 (HarryS)]",
    "recorded_value": "14.5 nM"
  },
  {
    "query_sequence": "UAUCCACAUGAGGAUCACCCAUGUAGGGAAGGAGCGGUGAAUGCACCAGGUAGGUCGCCUUGCUGAGGACAGCCGGUGGAUUCGU [Exclusion - Arginine A (Freestyle 26)]",
    "recorded_value": "12.2 nM"
  },
  {
    "query_sequence": "GGGCGCUAUCCCGCGAGGGAUAGCGUUCUUCGAGGACCGGUACGGCCGCCACUCGAACGAGUGGUGACAUGAGGAUCACCCAUGU [Paa]",
    "recorded_value": "63.6 nM"
  },
  {
    "query_sequence": "GCCAGUCAUAGCAGGGCAAAUAUACUCGAAGGAGCGUCAUAGUAGGCAGGUAGGUCGCGAGACAUGAGGAUCACCCAUGUAGAGA [fffmullin]",
    "recorded_value": "47.4 nM"
  }
]

* * *

tested on: MS2 coat protein; test: apparent KD of MS2 coat protein; designed switch direction (-1 OFF switch, 1 ON switch): -1; higher = weaker reporter binding; conditions: input ligand: FMN 200 uM
apparent KD of MS2 coat protein listing for selected sequences.
endpoint: apparent KD of MS2 coat protein (nM)

[
  {
    "query_sequence": "CAAUAACAAGCGAGAUCCUACAUGAGGAUCACCCAUGUGCUCGUCUUAAAAGGUACUGUGACGAUAGUCACGGUACC [Mat - Sensor, turn-off var - Eli Mod - D98] (Eterna round: R97, puzzle: Sensor, turn-off variant 1)",
    "endpoint": "apparent KD of MS2 coat protein",
    "recorded_value": 15.3
  },
  {
    "query_sequence": "UUUAGUUGGUAAGGAUAUCCUACAUUGUUCUGGCCCGGGCAUGCUACAUGAGGAUCACCCAUGUGGGAGAAGGUGCGUCAUCGC [Design 19] (Eterna round: R96, puzzle: Exclusion NG 2)",
    "endpoint": "apparent KD of MS2 coat protein",
    "recorded_value": 51.4
  },
  {
    "query_sequence": "GUAAGAUCCGUCAGGAUAUAUGCCCAAGGAGGGACGUAGAAGGGACAUGAGGAUCACCCAUGUACCUCAAGGAU [Eternabot (L1) Solution 97] (Eterna round: R97, puzzle: Brourd's mod of Exclusion 4)",
    "endpoint": "apparent KD of MS2 coat protein",
    "recorded_value": 17.6
  },
  {
    "query_sequence": "UGAGUGCUGCGAGGAUAUACAUGAGGAUCACCCAUGUUUUCCUGUGAGGCUUUGCCUCACAGGAUGUAGAAGGCGCAGUACUCU [JL ENG2 1.14] (Eterna round: R96, puzzle: Exclusion NG 2)",
    "endpoint": "apparent KD of MS2 coat protein",
    "recorded_value": 9.13
  },
  {
    "query_sequence": "CAACUGUCAGGAUAUCGUGCAUACAACGAAAGUUCUAUGUGCGAGAAGGGACAUGAGGAUCACCCAUGUAAACG [Omei Ex4 A27] (Eterna round: R97, puzzle: Exclusion 4)",
    "endpoint": "apparent KD of MS2 coat protein",
    "recorded_value": 199
  }
]
